Hello, the source for this data is patent US12122761B2, in case you need it.

# System Tested: human cloned CHRM2 receptor (M2_CHO cells) (Homo sapiens)
# Construct: expressed in transfected cells; host or cells: CHO-K1
# Sequence (P08172 1-466): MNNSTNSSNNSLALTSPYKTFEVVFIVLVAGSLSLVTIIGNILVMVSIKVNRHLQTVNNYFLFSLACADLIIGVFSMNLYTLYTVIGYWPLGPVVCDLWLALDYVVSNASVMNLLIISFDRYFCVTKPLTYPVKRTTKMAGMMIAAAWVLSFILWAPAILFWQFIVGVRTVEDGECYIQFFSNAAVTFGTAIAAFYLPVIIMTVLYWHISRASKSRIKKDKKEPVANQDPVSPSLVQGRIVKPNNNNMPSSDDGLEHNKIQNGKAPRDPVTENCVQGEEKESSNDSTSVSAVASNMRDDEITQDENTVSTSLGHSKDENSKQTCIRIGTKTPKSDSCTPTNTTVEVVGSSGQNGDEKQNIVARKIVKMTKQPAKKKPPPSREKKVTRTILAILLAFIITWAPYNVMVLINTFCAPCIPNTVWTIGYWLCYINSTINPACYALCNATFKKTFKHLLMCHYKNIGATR
# Procedure Details: CHRM2 Ca++ Flux Assay (agonist mode, FDSS 7000EX)
# Assay type: cell-based
# Experimental Conditions: Percent Activity measured to EC100 of Carbachol
Quantity Name: M2 FDSS PA (%)
Give a bare numeral; the unit % is implied.

Some molecules with recorded M2 FDSS PA:
[
  {
    "Molecule": "Cc1noc(C)c1COc1ccccc1C1CCN([C@@H]2CCC3(C2)CN(C(=O)C2(F)CC2)C3)CC1 (single isomer, unassigned)",
    "Units Symbol": "%",
    "M2 FDSS PA": 0
  },
  {
    "Molecule": "COc1ccc(Cl)cc1C1CCN([C@H]2CCC3(C2)CN(C(=O)C2(F)CC2)C3)CC1 (single isomer, unassigned) [Example 8B]",
    "Units Symbol": "%",
    "M2 FDSS PA": 0
  }
]

Now turn to the next molecule.
// M2 FDSS PA lookup, molecule = COc1ccccc1C1CCN([C@@H]2CCC3(C2)CN(c2ncns2)C3)CC1 (single isomer, unassigned) [Example 10R] , result: 0

* * *

# System Tested: human cloned CHRM4 receptor (M4_CHO cells) (Homo sapiens)
# Construct: expressed in transfected cells; host or cells: CHO-K1
# Sequence (P08173 whole entry): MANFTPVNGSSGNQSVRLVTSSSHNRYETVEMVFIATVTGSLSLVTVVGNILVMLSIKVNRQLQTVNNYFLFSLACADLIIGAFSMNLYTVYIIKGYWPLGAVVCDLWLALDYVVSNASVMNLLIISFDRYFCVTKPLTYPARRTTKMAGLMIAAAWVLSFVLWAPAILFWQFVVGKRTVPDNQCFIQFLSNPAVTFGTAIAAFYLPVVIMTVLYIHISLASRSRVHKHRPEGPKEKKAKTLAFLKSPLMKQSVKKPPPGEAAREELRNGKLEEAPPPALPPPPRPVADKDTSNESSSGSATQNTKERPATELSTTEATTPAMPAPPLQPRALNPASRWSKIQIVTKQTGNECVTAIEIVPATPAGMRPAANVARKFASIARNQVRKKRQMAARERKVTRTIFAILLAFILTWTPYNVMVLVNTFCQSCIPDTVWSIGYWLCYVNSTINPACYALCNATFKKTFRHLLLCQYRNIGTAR
# Procedure Details: CHRM4 Ca++ Flux Assay (agonist mode, FDSS 7000EX)
# Format: cell-based
# Experimental Conditions: Percent Activity, read-out: M4 FDSS PA
Measured Emax values are reported for all entries that follow.
Don't forget the unit after the value.

Some compounds with recorded Emax:
[
  {
    "Compound": "COc1ccccc1C1CCN([C@@H]2CCC3(C2)CN(c2cncc(F)c2)C3)CC1 [Example 5F]",
    "Experimental Result": "59%"
  },
  {
    "Compound": "c1ccc(C2CCN([C@@H]3CCC4(C3)CN(c3nnco3)C4)CC2)c(OC2COC2)c1 [Example 1D]",
    "Experimental Result": "79%"
  },
  {
    "Compound": "c1ccc(C2CCN([C@@H]3CCC4(C3)CN(c3cncnc3)C4)CC2)c(OC2COC2)c1 [Example 1K]",
    "Experimental Result": "74%"
  },
  {
    "Compound": "c1ccc(C2CCN([C@@H]3CCC4(C3)CN(c3cncnc3)C4)CC2)c(OCC2CCOCC2)c1 [Example 1M]",
    "Experimental Result": "53%"
  },
  {
    "Compound": "COc1ccccc1C1CCN([C@@H]2CCC3(C2)CN(c2nccnc2C(F)(F)F)C3)CC1 [Example 5I]",
    "Experimental Result": "16%"
  }
]

Summary: O=C(C1COC1)N1CC2(CC[C@@H](N3CCC(c4ccccc4OCCOC(F)(F)F)CC3)C2)C1 [Example 7DD] , human cloned CHRM4 receptor (M4_CHO cells) (Homo sapiens), Emax = 42%

Summary: Fc1cccc(C2CCN([C@@H]3CCC4(C3)CN(c3cncnc3)C4)CC2)c1OC1COC1 [Example 5W] , human cloned CHRM4 receptor (M4_CHO cells) (Homo sapiens), Emax = 90%

Summary: COc1ccccc1C1CCN([C@@H]2CCC3(C2)CN(c2nc(C)ns2)C3)CC1 [Example 3M] , human cloned CHRM4 receptor (M4_CHO cells) (Homo sapiens), Emax = 30%

Summary: c1ccc(C2CCN([C@@H]3CCC4(C3)CN(c3nncs3)C4)CC2)c(OCC2COC2)c1 [Example 1G] , human cloned CHRM4 receptor (M4_CHO cells) (Homo sapiens), Emax = 82%

Summary: Fc1ccc(C2CCOCC2)c(C2CCN([C@@H]3CCC4(C3)CN(c3nnco3)C4)CC2)c1 [Example 2I] , human cloned CHRM4 receptor (M4_CHO cells) (Homo sapiens), Emax = 96%

Summary: CC(C)(O)COc1ccccc1C1CCN([C@@H]2CCC3(C2)CN(c2ncncn2)C3)CC1 [Example 5U] , human cloned CHRM4 receptor (M4_CHO cells) (Homo sapiens), Emax = 49%

Summary: O=C(C1COC1)N1CC2(CC[C@@H](N3CCC(c4ccc(F)cc4OC(F)F)CC3)C2)C1 [Example 6B] , human cloned CHRM4 receptor (M4_CHO cells) (Homo sapiens), Emax = 50%

Summary: COCCOc1ccccc1C1CCN([C@@H]2CCC3(C2)CN(c2cnc(C)cn2)C3)CC1 [Example 5Y] , human cloned CHRM4 receptor (M4_CHO cells) (Homo sapiens), Emax = 0%

Summary: COc1ccccc1C1CCN([C@@H]2CCC3(C2)CN(c2cnc(C)nc2)C3)CC1 [Example 5E] , human cloned CHRM4 receptor (M4_CHO cells) (Homo sapiens), Emax = 2%

Summary: Cc1ncncc1N1CC2(CC[C@@H](N3CCC(c4ccccc4OCC(C)(C)O)CC3)C2)C1 [Example 5C] , human cloned CHRM4 receptor (M4_CHO cells) (Homo sapiens), Emax = 6%

Summary: CC(C)(O)COc1ccccc1C1CCN([C@@H]2CCC3(C2)CN(c2nncs2)C3)CC1 [Example 3G] , human cloned CHRM4 receptor (M4_CHO cells) (Homo sapiens), Emax = 57%

Summary: O=C(N1CC2(CC[C@H](N3CCC(c4ccccc4C4CCOCC4)CC3)C2)C1)C1(F)CC1 (single isomer, unassigned) [Example 9M] , human cloned CHRM4 receptor (M4_CHO cells) (Homo sapiens), Emax = 35%

Summary: c1ccc(C2CCN([C@@H]3CCC4(C3)CN(c3nnco3)C4)CC2)c(OC[C@H]2COCCO2)c1 [Example 1C] , human cloned CHRM4 receptor (M4_CHO cells) (Homo sapiens), Emax = 75%

Summary: Cc1coc(N2CC3(CC[C@@H](N4CCC(c5ccccc5OCC(C)(C)O)CC4)C3)C2)n1 [Example 3O] , human cloned CHRM4 receptor (M4_CHO cells) (Homo sapiens), Emax = 1%

Summary: COc1ccccc1C1CCN([C@@H]2CCC3(C2)CN(c2cncc(C)n2)C3)CC1 [Example 5G] , human cloned CHRM4 receptor (M4_CHO cells) (Homo sapiens), Emax = 1%

Summary: O=C(C1COC1)N1CC2(CC[C@@H](N3CCC(c4ccccc4OCC(F)F)CC3)C2)C1 [Example 7JJ] , human cloned CHRM4 receptor (M4_CHO cells) (Homo sapiens), Emax = 49%

* * *

Measured EC50 values are reported for all entries that follow.
# System Tested: human cloned CHRM5 receptor (M5_CHO) (Homo sapiens)
# Construct: expressed in transfected cells; host or cells: CHO (M5_CHO)
# Sequence (P08912 whole entry): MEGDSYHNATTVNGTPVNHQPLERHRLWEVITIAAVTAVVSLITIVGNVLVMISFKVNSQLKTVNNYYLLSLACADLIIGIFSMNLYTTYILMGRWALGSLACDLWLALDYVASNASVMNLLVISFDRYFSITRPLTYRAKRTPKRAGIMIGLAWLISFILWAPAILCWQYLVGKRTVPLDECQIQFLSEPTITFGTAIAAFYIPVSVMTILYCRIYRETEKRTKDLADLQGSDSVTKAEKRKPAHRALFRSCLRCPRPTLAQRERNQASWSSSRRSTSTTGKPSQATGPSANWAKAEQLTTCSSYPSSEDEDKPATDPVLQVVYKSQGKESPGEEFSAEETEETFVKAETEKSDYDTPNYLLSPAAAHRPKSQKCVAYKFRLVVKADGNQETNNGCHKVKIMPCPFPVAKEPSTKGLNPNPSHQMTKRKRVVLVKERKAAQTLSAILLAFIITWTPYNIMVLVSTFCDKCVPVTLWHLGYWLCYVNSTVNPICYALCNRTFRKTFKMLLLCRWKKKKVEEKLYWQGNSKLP
# Procedure Details: CHRM5 Ca++ Flux Assay (agonist mode, FDSS 7000EX)
# Type: cell-based
# Experimental Conditions: agonist mode; geometric mean if tested more than once; read-out: M5 FDSS EC50

[
  {
    "Molecule": "Cc1ncc(COc2ccccc2C2CCN([C@@H]3CCC4(C3)CN(C(=O)C3(F)CC3)C4)CC2)o1 (single isomer, unassigned) [Example 7V]",
    "Experimental Result": "> 25 µM"
  },
  {
    "Molecule": "O=C(C1COC1)N1CC2(CC[C@@H](N3CCC(c4ccccc4OCC4CC4)CC3)C2)C1 [Example 7I]",
    "Experimental Result": "> 25 µM"
  }
]

// EC50 lookup, molecule = O=C(N1CC2(CC[C@@H](N3CCC(c4ccccc4C4(O)CCOCC4)CC3)C2)C1)C1(F)CC1 (single isomer, unassigned) [Example 9G] , result: > 25 µM

* * *

# System Tested: human cloned CHRM4 receptor (M4_CHO cells) (Homo sapiens)
# Construct: expressed in transfected cells; host or cells: CHO-K1
# Procedure Details: CHRM4 Ca++ Flux Assay (agonist mode, FDSS 7000EX)
# Assay type: cell-based
# Experimental Conditions: geometric mean if tested more than once, read-out: M4 FDSS EC50
Values of EC50 strictly less than 20 nM map to Condition met, and values of at least 20 nM map to Condition not met.

Field: example entries. Status: answers known.
[
  {
    "Compound": "O=C(N1CC2(CC[C@@H](N3CCC(c4ccccc4C4(O)CCOCC4)CC3)C2)C1)C1(F)CC1 (single isomer, unassigned) [Example 9H]",
    "System Tested": "human cloned CHRM4 receptor (M4_CHO cells) (Homo sapiens)",
    "Answer Label": "Condition not met"
  },
  {
    "Compound": "O=C(N1CC2(CC[C@@H](N3CCC(c4ccccc4C4CCOCC4)CC3)C2)C1)C1(F)CC1",
    "System Tested": "human cloned CHRM4 receptor (M4_CHO cells) (Homo sapiens)",
    "Answer Label": "Condition met"
  }
]

Exercise: is_below(EC50, 20 nM) for `c1ccc(C2CCN([C@@H]3CCC4(C3)CN(c3nnco3)C4)CC2)c(OCC2CCOCC2)c1` ?
Solution: Condition met

Exercise: is_below(EC50, 20 nM) for FC(F)(F)Oc1ccccc1C1CCN([C@@H]2CCC3(C2)CN(c2ncco2)C3)CC1 (single isomer, unassigned) [Example 10L] ?
Solution: Condition not met
